These data points were gathered from paper PMC5540273.

- System: TRKA
- Construct: gene NTRK1
- cond: concentration: 1 μM, replicates: in singlicate; n = 1;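 note: KINOMEscan kinase panel screen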
If the reported %Inh equals or exceeds 10%, assign 1.0. If not, assign 0.0.

[
  {
    "molecule": "O=C(Nc1ccccc1F)NC1CCN(c2ccnc(Nc3ccc(F)cc3)n2)C1 (stereo not shown) [GSK1379722]",
    "testedTarget": "TRKA",
    "classAssignment": 0.0
  }
]

As a next step, examine the molecule that follows.
Please check the record CSc1ccc(NC2=C(c3ccccc3Cl)C(=O)NC2=O)cc1 [SB-342411] and state if its %Inh is at or above 10%.
1.0

----------
Measured %Inh accompanies every entry in the list below.
- Tested on: PAK6
- cond: concentration: 1 μM, replicates: in singlicate; n = 1
Reply with just the number (in %).

[
  {
    "molecule": "Cl.Cn1ccc(-c2cccc(Nc3ccnc4cc(-c5nccs5)ccc34)c2)n1",
    "testedTarget": "PAK6",
    "resultNumber": 0
  },
  {
    "molecule": "Nc1nc(-c2ccccn2)c(-c2ccnc3ccccc23)s1",
    "testedTarget": "PAK6",
    "resultNumber": 1
  },
  {
    "molecule": "CNc1nccc(-c2c(-c3ccc(F)cc3)ncn2CCCN2CCOCC2)n1",
    "testedTarget": "PAK6",
    "resultNumber": 0
  }
]

Recall and state the measured %Inh for "O=c1cc(N2CCOCC2)nc2n(Cc3cccc(Cl)c3)ccn12" .
0

----------
Let's look at some molecules and their measured %Inh.
- Test system: MARK4
- cond: concentration: 1 μM, replicates: in singlicate; n = 1
Record the value in %, omitting the unit from your answer.

Give a short answer stating reported %Inh for "O=C(NCCCN1CCCC1=O)c1cnc(NCc2cc(Cl)ccc2Cl)nc1NC1CCNCC1" .
0

For the molecule COc1cc2ncnc(Nc3ccc(OCc4ccccc4Br)c(Cl)c3)c2cc1OC.Cl [GI261590] , give its reported %Inh.
11

Please look at this molecule and report its %Inh: "N#Cc1ccc(Oc2ccc(Nc3ncnc4cc[nH]c34)cc2Cl)cc1"
0

----------
- System: HCK
- cond: concentration: 1 μM, replicates: in singlicate; n = 1
reportedProperty: %Inh (%)
Just the number please, in %, no unit attached.

[
  {
    "molecule": "Nc1nc(-c2ccccn2)c(-c2ccnc3ccccc23)s1 [GW548057]",
    "reportedProperty": "%Inh",
    "resultNumber": 4
  },
  {
    "molecule": "Oc1ccc2ncnc(Nc3ccc(OCc4ccccc4)cc3)c2c1 [GI262866]",
    "reportedProperty": "%Inh",
    "resultNumber": 0
  },
  {
    "molecule": "COc1cc2ncnc(Nc3ccc(OCc4ccccc4Br)c(Cl)c3)c2cc1OC.Cl [GI261590]",
    "reportedProperty": "%Inh",
    "resultNumber": 25
  }
]

Tell us which %Inh value is on record for CCCc1ccc(S(=O)(=O)NC2CCN(c3ccnc(Nc4ccc(OC)cc4)n3)C2)cc1 (stereo not shown) [GSK1379737]
0

Using known records, supply %Inh for Nc1nc(-c2ccc3c(N)n[nH]c3c2)cc(N2CCCCC2)n1 [GSK2228768]
0

Specify %Inh for CS(=O)(=O)CCNCc1nc(-c2ccc3ncnc(Nc4ccc(OCc5cccc(F)c5)c(Cl)c4)c3c2)cs1.Cl [GW583340] and stop.
0

----------
- Test system: LATS1
- cond: concentration: 1 μM, replicates: in singlicate; n = 1
reportedProperty: %Inh (%)
Answer with a number only, understood to be in %.

Consider the reported %Inh for these compounds:
[
  {
    "compound": "CS(=O)(=O)CCNCc1ccc(-c2ccc3ncnc(Nc4ccc(OCc5ccccc5)c(Cl)c4)c3c2)o1.Cl [GW574783]",
    "%Inh (%)": 0
  },
  {
    "compound": "COc1cc2ncnc(Nc3ccc(OCc4ccccc4Br)c(Cl)c3)c2cc1OC.Cl [GI261590]",
    "%Inh (%)": 8
  },
  {
    "compound": "Fc1cccc(COc2ccc(Nc3ncnc4nn5ccccc5c34)cc2Cl)c1 [GW689066]",
    "%Inh (%)": 0
  },
  {
    "compound": "COc1ccc(Nc2nccc(N3CCC(NC(=O)Nc4ccc5c(c4)OCO5)C3)n2)cc1 (stereo not drawn) [GSK1379745]",
    "%Inh (%)": 0
  },
  {
    "compound": "CCC(CC)(CC)n1cnc2c(N)ncnc21 [SKF-97620]",
    "%Inh (%)": 24
  }
]

Supply measured %Inh of Cl.Cl.c1ccc(-c2cc3ccncc3cc2OC2CCNCC2)cc1 [GSK1122999] in your reply.
33

Read off the recorded %Inh for COc1ccc(Nc2nccc(N3CCC(NC(=O)c4cccc(NC(C)=O)c4)C3)n2)cc1 (stereo not drawn) [GSK1379732]
0

Annotate the compound "O=C(CCO)NCCn1ccc2ncnc(Nc3ccc(Oc4cccc(C(F)(F)F)c4)c(Cl)c3)c21" with its measured %Inh.
5

Using the record for Cc1ccc(NC(=O)c2cccc(C#N)c2)cc1-c1ccc(C(=O)Nc2ccncc2)cc1 [GSK1398463] , state its measured %Inh.
19

Annotate the compound Clc1cccc(-c2nc(Nc3ccncc3)c3ccccc3n2)c1 [GW873004] with its measured %Inh.
14

Dear colleague, please send me the reported %Inh for Nc1nc(-c2ccc3c(N)n[nH]c3c2)cc(N2CCC[C@@H](C(=O)Nc3ccccc3)C2)n1.O=C(O)C(F)(F)F.O=C(O)C(F)(F)F [GSK2288359] when you can.
0

Identify %Inh associated with the compound Cc1ccc(C)c(NC(=O)NCCNc2ccnc(Nc3ccc(F)cc3)n2)c1 [GSK1379878]
0

----------
- System: ITK
- cond: concentration: 1 μM, replicates: in singlicate; n = 1
reportedProperty: %Inh (%)
Numbers only here, please. The scale is %.

[
  {
    "molecule": "Nc1nc(-c2cccnc2)c(-c2ccnc3ccccc23)s1",
    "resultNumber": 15
  },
  {
    "molecule": "Clc1cccc(-c2nc(Nc3ccncc3)c3ccccc3n2)c1",
    "resultNumber": 21
  }
]

Dear colleague, please send me the reported %Inh for "Clc1ccc(-c2cc(-c3c[nH]nc3-c3ccccn3)ccn2)cc1" when you can.
16

----------
- System: CDKL1
- cond: concentration: 1 μM, replicates: in singlicate; n = 1
reportedProperty: %Inh
Please provide the amount together with its unit, number first.

Record excerpt, results attached:
[
  {
    "compound": "COc1cc2c(Nc3cccc(NC(=O)c4ccccc4)c3)ncnc2cc1OCCCN1CCOCC1",
    "testedTarget": "CDKL1",
    "%Inh": "0%"
  },
  {
    "compound": "CSc1ccc(NC2=C(c3ccccc3Cl)C(=O)NC2=O)cc1",
    "testedTarget": "CDKL1",
    "%Inh": "13%"
  },
  {
    "compound": "CN1CCC(n2cnc(-c3ccc(F)cc3)c2-c2ccnc(NC3CCNCC3)n2)CC1",
    "testedTarget": "CDKL1",
    "%Inh": "0%"
  },
  {
    "compound": "COc1ccc(Nc2nccc(N3CCC(NC(=O)Nc4ccc5c(c4)OCO5)C3)n2)cc1 (centres unmarked)",
    "testedTarget": "CDKL1",
    "%Inh": "1%"
  }
]

Here is another compound to look at.
Quickly give me recorded %Inh for "C[C@@H]1CCN(C(=O)CO)C[C@@H]1N(C)c1ncnc2[nH]ccc12"
12%

----------
%Inh listing for selected molecules.
- Tested on: MEK6
- Construct: gene MAP2K6
- cond: concentration: 1 μM, replicates: in singlicate; n = 1
Kindly provide the numeric value in % only, without the unit symbol.

Some entries whose results are on file:
[
  {
    "molecule": "CCCc1ccc(S(=O)(=O)NC2CCN(c3ccnc(Nc4ccc(OC)cc4)n3)C2)cc1 (centres unmarked)",
    "%Inh [%]": 0
  },
  {
    "molecule": "Cc1ccc(O)cc1Nc1cc(C(F)(F)F)nc2ccc(-c3ccncc3)cc12",
    "%Inh [%]": 0
  }
]

Fill in reported %Inh for this entry: "Nc1nc(-c2cccnc2)c(-c2ccnc3ccccc23)s1"
0

----------
- Test system: CSNK1A1L
- cond: concentration: 1 μM, replicates: in singlicate; n = 1
reportedProperty: %Inh (%)
Please respond with the number in % and leave the unit unwritten.

Use the examples below as a reference point.
[
  {
    "compound": "CC(C)(C)OC(=O)NC1CCCN(c2cc(-c3ccc4c(N)n[nH]c4c3)nc(N)n2)C1 (stereo not drawn)",
    "%Inh (%)": 0
  },
  {
    "compound": "CCn1c(-c2ccncc2)nc2cnccc21",
    "%Inh (%)": 10
  }
]

Now let's try a different one.
Identify %Inh associated with the compound COc1ccc(Nc2nccc(N3CCC(NC(=O)Nc4ccc5c(c4)OCO5)C3)n2)cc1 (stereo not drawn)
24
